The origin of these recorded values is PubChem BioAssay (NCI).

System: MDA-MB-231 breast
Test: NCI-60 one-dose screen, 48 h (100 = growth as untreated, 0 = no growth, -100 = all killed)
Settings: 10 µM unless noted
The panel holds about 83,000 compounds, 20% with a hit somewhere; the sample as a whole holds those more often.
I'd be grateful if you could share measured growth for these entries.
The reply should be a number in %, with the unit left off.

QUERY: What does the data say about its growth? Entry: COc1ccc2[nH]cc(-c3nc(-c4c[nH]c5ncccc45)cs3)c2c1
RESULT: 39.1

QUERY: What does the data say about its growth? Entry: CC(=O)c1c(C)[nH]c(-c2nc3ccc(N4CCN(C)CC4)cc3[nH]2)c1-c1ccc(OCC2CCOCC2)cc1
RESULT: 37.4

QUERY: What does the data say about its growth? Entry: CCC(c1ccc(OC)cc1)C(CC)c1ccc(O)c(CN2CCCCC2)c1 (stereo not drawn)
RESULT: 77.6

QUERY: What does the data say about its growth? Entry: Cc1ccc(-c2nn(Cc3cn(-c4cc(C)nc5ccccc45)nn3)c3ncnc(N)c23)cc1
RESULT: 33.1

QUERY: What does the data say about its growth? Entry: Oc1ccc(CCC2CCCC(CCc3ccc(OCCF)cc3)N2)cc1 (stereo not drawn)
RESULT: 88.9

QUERY: What does the data say about its growth? Entry: Cn1cc(-c2csc(-c3cn(C(=O)OC(C)(C)C)c4ccc(Br)cc34)n2)c2cccnc21
RESULT: 75.3

QUERY: What does the data say about its growth? Entry: CC(=O)NC1=C(C#N)C(c2ccccc2Cl)c2c(ccc3ccccc23)O1 (stereo not drawn)
RESULT: 66.6

QUERY: What does the data say about its growth? Entry: COC(=O)[C@]12CC[C@@H](C)[C@H](C)[C@@H]1C1=CC[C@@H]3[C@@]4(C)C[C@@H](OC(C)=O)[C@H](OC(C)=O)[C@@](C)(COC(C)=O)[C@@H]4[C@H](O)C[C@@]3(C)[C@]1(C)CC2
RESULT: 18.1

* * *

System: PC-3 prostate
Test: NCI-60 one-dose screen, 48 h (100 = growth as untreated, 0 = no growth, -100 = all killed)
Conditions: 10 µM unless noted
About 83,000 compounds went through this panel and 20% of them were active in at least one assay; those are over-represented in the sample as a whole. The source made the active and inactive calls. The calls were made as follows: active = growth percent below 10; inactive = the rest.
I'd be grateful if you could share measured growth for these entries.

QUERY: What does the data say about its growth? Entry: CC[C@]12C=CCN3CC[C@@]4(c5cc([C@H]6CCC(=O)N6)c(OC)cc5N(C)[C@H]4[C@@](O)(C(=O)OC)[C@@H]1OC(C)=O)[C@@H]32
RESULT: 95.5% [2.5 µM] (inactive)

QUERY: What does the data say about its growth? Entry: C=C(C)[C@@H]1CC[C@]2(C)CC[C@]3(C)[C@H](CC[C@@H]4[C@@]5(C)CCCNC(C)(C)[C@@H]5CC[C@]43C)[C@@H]12
RESULT: 78.9% (inactive)

QUERY: What does the data say about its growth? Entry: C=C(C)[C@@H]1CC[C@]2(C=NCCCNCCCCNCCCN)CC[C@]3(C)[C@H](CC[C@@H]4[C@@]5(C)CCCNC(C)(C)[C@@H]5CC[C@]43C)[C@@H]12
RESULT: 85.9% (inactive)

QUERY: What does the data say about its growth? Entry: c1cnc2[nH]cc(-c3csc(-c4cn(CCCN5CCCCC5)c5ccccc45)n3)c2c1
RESULT: 34.9% (inactive)

QUERY: What does the data say about its growth? Entry: C=C(C)[C@@H]1CC[C@]2(C(=O)N3CCN(CC)CC3)CC[C@]3(C)[C@H](CC[C@@H]4[C@@](C)(CCC(=O)N5CCN(CC)CC5)[C@H](C(=C)C)CC[C@]43C)[C@@H]12
RESULT: 32.5% (inactive)

QUERY: What does the data say about its growth? Entry: COc1ccc2c(c1)c(-c1nc(-c3cn(C)c4ncccc34)cs1)cn2CCN
RESULT: 70.2% (inactive)

QUERY: What does the data say about its growth? Entry: COc1ccc2c(c1)c(-c1nc(-c3c[nH]c4ncccc34)cs1)cn2CCNC(=O)OC(C)(C)C
RESULT: 31.8% (inactive)

* * *

Tested on: DU-145 prostate
Test: NCI-60 one-dose screen, 48 h (100 = growth as untreated, 0 = no growth, -100 = all killed)
Conditions: 10 µM unless noted
About 83,000 compounds went through this panel and 20% of them were active in at least one assay; those are over-represented in the sample as a whole. The source made the active and inactive calls. Rule for the calls: active = growth percent below 10; inactive = the rest.
result.type: growth

QUERY: What does the data say about its growth? Entry: CCOC(=O)N1CCN(CCCCOc2ccc(C(C)(C)CC)cc2)CC1
RESULT: 104% (inactive)

QUERY: What does the data say about its growth? Entry: C=C(C)[C@@H]1CC[C@]2(c3nnc(-c4ccncc4)o3)CC[C@]3(C)[C@H](CC[C@@H]4[C@@]5(C)CCC(=O)NC(C)(C)[C@@H]5CC[C@]43C)[C@@H]12
RESULT: 108% (inactive)

QUERY: What does the data say about its growth? Entry: OCCNc1nc(Nc2ccc(Cl)c(Cl)c2)nc2ccccc12
RESULT: 70.9% (inactive)

QUERY: What does the data say about its growth? Entry: CCN(CC)c1ccc(/C=C/c2cc(C)c3ccccc3n2)cc1
RESULT: 94.2% (inactive)

QUERY: What does the data say about its growth? Entry: Nc1c2c(nc3ccc(Br)cc13)CC(c1ccccc1)CC2=O (stereo unspecified)
RESULT: 24.2% (inactive)

QUERY: What does the data say about its growth? Entry: O=C1C=C(C(O)c2ccc(O)cc2)C(=O)c2ccccc21 (stereo unspecified)
RESULT: 107% (inactive)

QUERY: What does the data say about its growth? Entry: Cn1cc(-c2csc(-c3c[nH]c4ccccc34)n2)c2cccnc21
RESULT: 16.5% (inactive)

QUERY: What does the data say about its growth? Entry: COCCNC1=C(Cl)C(=O)c2ccccc2C1=O
RESULT: 53.9% (inactive)

QUERY: What does the data say about its growth? Entry: C=C(C)[C@@H]1CC[C@]2(CN)CC[C@]3(C)[C@H](CC[C@@H]4[C@@]5(C)CCC(=O)NC(C)(C)[C@@H]5CC[C@]43C)[C@@H]12
RESULT: 75% (inactive)

QUERY: What does the data say about its growth? Entry: C=C1CC[C@@H](C(=O)OC)Cc2nc(C)ccc21
RESULT: 119% (inactive)

QUERY: What does the data say about its growth? Entry: CC(C)(C)c1nc(-c2ccc(O)c(O)c2)cs1
RESULT: 66.3% (inactive)

QUERY: What does the data say about its growth? Entry: Cc1ccc(Cc2cnc(NC(=O)/C=C/c3cccc(C)c3)s2)cc1
RESULT: 16.2% (inactive)

QUERY: What does the data say about its growth? Entry: CSc1ccc(N(C)c2nc(C)nc3c2CCC3)cc1
RESULT: 9.33% (active)

QUERY: What does the data say about its growth? Entry: c1ccc2[nH]c(-c3ccc(Nc4nc(N5CCCCC5)nc(N5CCOCC5)n4)cc3)nc2c1
RESULT: 39% (inactive)

QUERY: What does the data say about its growth? Entry: NC1=NN(c2ccccc2)C(=O)/C1=C/c1ccc(Cl)cc1
RESULT: 107% (inactive)

QUERY: What does the data say about its growth? Entry: [B-][N+](CC)(CC)c1ccccc1
RESULT: 106% (inactive)

* * *

System: SF-295 CNS
Experiment: NCI-60 one-dose screen, 48 h (100 = growth as untreated, 0 = no growth, -100 = all killed)
Conditions: 10 µM unless noted
The panel holds about 83,000 compounds, 20% with a hit somewhere; the sample as a whole holds those more often. Active and inactive are the calls of the source. How the source made its calls: active means growth percent below 10; inactive means the rest.
I'd be grateful if you could share measured growth for these entries.

QUERY: What does the data say about its growth? Entry: COC(=O)C(Cc1ccccc1)n1cc(COc2nc(Cl)nc(Nc3ccc(Cl)cc3)n2)nn1 (stereo not given)
RESULT: 101% (inactive)

QUERY: What does the data say about its growth? Entry: COc1cc(/C=C2\C(=O)N(CC(O)COc3cc(O)c4c(=O)cc(-c5ccccc5)oc4c3)c3ccccc32)cc(OC)c1O (stereo not given)
RESULT: 95.1% (inactive)

QUERY: What does the data say about its growth? Entry: N#Cc1c(-c2ccc(O)cc2)c2c(N)nn(-c3ccccc3)c2[nH]c1=O
RESULT: 110% (inactive)

QUERY: What does the data say about its growth? Entry: O=[N+]([O-])c1ccc(/C=N\Nc2ccccc2)cc1
RESULT: 55.3% (inactive)

QUERY: What does the data say about its growth? Entry: C#CCn1c(C)cc(C)c(C#N)c1=O
RESULT: 99.7% (inactive)

* * *

Tested on: SN12C renal
Assay: NCI-60 one-dose screen, 48 h
Conditions: 10 µM unless noted
About 83,000 compounds went through this panel and 20% of them were active in at least one assay; those are over-represented in the sample as a whole. The source made the active and inactive calls. Rule for the calls: active = growth percent below 10; inactive = the rest.
Return exactly one item of active, inactive

QUERY: # fetch the recorded call for C[Si](C)(C)Cc1ccccc1 here
RESULT: inactive

QUERY: # fetch the recorded call for CC(C)=CCC[C@](C)(O)[C@H]1CC[C@]2(C)[C@@H]1CC[C@@H]1[C@@]3(C)C/C(=C/c4cccc([N+](=O)[O-])c4)C(=O)C(C)(C)[C@@H]3CC[C@]12C here
RESULT: inactive

QUERY: # fetch the recorded call for C=C(C)[C@@H]1CC[C@]2(C(=O)N3CCN(C)CC3)CC[C@]3(C)[C@H](CC[C@@H]4[C@@]5(C)C/C(=C/c6ccc(C(F)(F)F)cc6)C(=O)C(C)(C)[C@@H]5CC[C@]43C)[C@@H]12 here
RESULT: inactive

QUERY: # fetch the recorded call for c1cc(N2CCCC2)c2nc(-c3[nH]ncc3Nc3ncnc4[nH]ccc34)[nH]c2c1 here
RESULT: active

QUERY: # fetch the recorded call for Cc1ccc(S(=O)(=O)Nc2ccc(-c3cc(-c4cccc(F)c4)c(C#N)c(N)n3)cc2)cc1 here
RESULT: inactive

QUERY: # fetch the recorded call for CCCCCCCCNc1cccc2c1C(=O)c1ccccc1C2=O here
RESULT: inactive

QUERY: # fetch the recorded call for CC1(C)C(=O)CC[C@]2(C)[C@H]3C(=O)C=C4[C@@H]5C[C@@](C)(C(=O)NCCNCCN)CC[C@]5(C)CC[C@@]4(C)[C@]3(C)CC[C@@H]12 here
RESULT: inactive

QUERY: # fetch the recorded call for COc1ccc(C2CC(=O)c3c(nc4ccc(Cl)cc4c3N)C2)cc1 (stereo not drawn) here
RESULT: inactive
